Property: ED50; scope: individual compounds
system: male mice (ICR); assay: Muscle relaxation: grip strength; type: in vivo; conditions: Mus musculus, ip; intraperitoneal, at time of maximum effect; 50% of activity vs vehicle only; read-out: MR test ED50, III = Grip strength
ASSAY READOUT: ED50 (mg/kg)

> print(dat)
                                   compound  measured
1    CC(C)NC(=O)O[C@H](C)[C@H](O)c1ccccc1Cl      48.8
2      CNC(=O)OC(C)C(O)c1ccccc1Cl (racemic)        46
3    CCCNC(=O)OC(C)C(O)c1ccccc1Cl (racemic)      65.4
4  C[C@H](OC(=O)NC1CCCCC1)[C@@H](O)c1ccccc1Cl       110
5         C[C@H](OC(N)=O)[C@@H](O)c1ccccc1F       118
6  C[C@@H](OC(=O)NC1CC1)[C@H](O)c1ccccc1Cl (single isomer, unassigned)      46.1
7         C[C@H](OC(N)=O)[C@@H](O)c1ccccc1I      42.9
8  CC(C)NC(=O)OC(C)C(O)c1ccccc1Cl (racemic)      50.4
9       C[C@@H](OC(N)=O)[C@@H](O)c1ccccc1Cl       124
